Here, each record is paired with measured activation (% of control) data.
Molecular target: Signal transducer and activator of transcription 3 (Homo sapiens)
Assay: STAT3 reporter activation by STAT1 hits, confirmation, counter-screen for STAT1 activator project, U3A cells, luciferase, luminescence (AID 1316);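 also: 0% = no luminescence and 100% = median IL-6 plus DMSO wells; higher means more STAT3 reporter activation so hits are non-selective activators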
Conditions: IL-6, luminescence, at 5.7 µM, active compounds read high, 100 = IL-6 alone, no compound effect, cells lack STAT1
The list shows a part of the results.
Give the quantity in %, number only.

compound=CCOC(=O)/C(C#N)=C/c1ccc(N2CCCCC2)cc1 property_name="activation (% of control)" reported=108
compound="O=C(Nc1ccc(-c2nnc(-c3ccccc3)o2)cc1)C1CCCO1 (centres undefined)" property_name="activation (% of control)" reported=123
compound=O=C(Nc1ccc2oc(-c3ccccc3F)nc2c1)c1ccco1 property_name="activation (% of control)" reported=104

Read the next record carefully.
Ask | Need activation (% of control), item `CC(=O)c1sc(N/N=C\c2ccc(C)cc2)nc1C`
Reply | 107

###

Assay: VP16 transactivation reporter inhibitors, counter-screen for LRH-1 inverse agonist project, cell-based, luminescence, high throughput (AID 651615)
Conditions: Gal4-VP16 luciferase reporter cells, at 3.6 µM, active compounds read high
Here, each record is paired with measured inhibition data.
Give the quantity in %, number only.

compound=C/C(=N/N1CCN(Cc2cccc3ccccc23)CC1)c1cccnc1 reported=-2.08
compound=CCN(CC)C1=CC(=[N+]2CCCC2)CC(C)(C)C1 reported=45.8
compound="COc1cccc(C(C)(O)c2nc(-c3ccoc3)cs2)c1 (stereo unspecified)" reported=-0.14
compound="C=C1C(=O)OC2CC1C(OC(C)=O)CC(C)=CCCC(C)=CCCC2(C)O (stereo unspecified)" reported=56
compound=O=C(N/N=C/c1sc(N2CCOCC2)nc1-c1ccccc1)c1cccc(S(=O)(=O)N2CCOCC2)c1 reported=87.4
compound=CCn1c(SCC(=O)Nc2ccc(Cl)cc2)nnc1C1CC1 reported=6.77
compound=CC(=O)Nc1ccccc1OCC(=O)c1cc(C)n(Cc2cccs2)c1C reported=39.6
compound=c1ccc2c(c1)CCN(c1ncnc3c1[nH]c1ccccc13)C2 reported=58.2
compound="Cc1c(Cl)cccc1NC(=O)CSc1nnc(C)n1CC1CCCO1 (stereo unspecified)" reported=-6.95
compound=CC[n+]1ccc(/C=C/c2c[nH]c3ccccc23)cc1 reported=60.8

Read the next record carefully.
Ask | Need inhibition, item `COc1cccc(NC(=O)c2oc3ccccc3c2NC(=O)C2CC2)c1`
Reply | -8.83

###

Molecular target: Nuclear receptor coactivator 3 (Homo sapiens)
Assay: SRC3 coactivator transcriptional activity inhibitors, confirmation, cell-based, luminescence, quadruplicate (AID 588792);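 also: 0% = DMSO treated cells and 100% = gossypol at 36 µM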
Conditions: HEK293 GAL4-SRC3 luciferase reporter, at 3.6 µM
Calls of active or inactive are those of the source.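 The calls were made as follows: active = mean inhibition over 43.08%, the solvent-only control mean plus 3 SD; inactive = the rest.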
Thanks in advance; please answer with one of these: 1 = active, 0 = inactive

Past entries and their recorded results:
molecule=OCCN1CCN(C(=S)c2ccc(-c3ccccc3)cc2)CC1 target_desc="Nuclear receptor coactivator 3 (Homo sapiens)" classification=0
molecule=CCN(CC)CCNc1ccc(C)c2sc3ccc(O)cc3c(=O)c12 target_desc="Nuclear receptor coactivator 3 (Homo sapiens)" classification=0
molecule=COc1cccc(CN(C)C(=O)c2ccc(OCC(=O)Nc3cccc(C(F)(F)F)c3)c(OC)c2)c1 target_desc="Nuclear receptor coactivator 3 (Homo sapiens)" classification=0
molecule=COc1ccc(/C=C/c2cc(-c3ccc(C)cc3)o[n+]2C)cc1 target_desc="Nuclear receptor coactivator 3 (Homo sapiens)" classification=1

Please examine the following record next.
Ask | For `COc1ccc([N+](=O)[O-])cc1NC(=O)Nc1cccc(Cl)c1` , what call appears in the results of this test?
Reply | 0

###

Target: Nuclear receptor coactivator 3 (Homo sapiens) (UniProt Q9Y6Q9)
Sequence (Q9Y6Q9 whole entry, looked up): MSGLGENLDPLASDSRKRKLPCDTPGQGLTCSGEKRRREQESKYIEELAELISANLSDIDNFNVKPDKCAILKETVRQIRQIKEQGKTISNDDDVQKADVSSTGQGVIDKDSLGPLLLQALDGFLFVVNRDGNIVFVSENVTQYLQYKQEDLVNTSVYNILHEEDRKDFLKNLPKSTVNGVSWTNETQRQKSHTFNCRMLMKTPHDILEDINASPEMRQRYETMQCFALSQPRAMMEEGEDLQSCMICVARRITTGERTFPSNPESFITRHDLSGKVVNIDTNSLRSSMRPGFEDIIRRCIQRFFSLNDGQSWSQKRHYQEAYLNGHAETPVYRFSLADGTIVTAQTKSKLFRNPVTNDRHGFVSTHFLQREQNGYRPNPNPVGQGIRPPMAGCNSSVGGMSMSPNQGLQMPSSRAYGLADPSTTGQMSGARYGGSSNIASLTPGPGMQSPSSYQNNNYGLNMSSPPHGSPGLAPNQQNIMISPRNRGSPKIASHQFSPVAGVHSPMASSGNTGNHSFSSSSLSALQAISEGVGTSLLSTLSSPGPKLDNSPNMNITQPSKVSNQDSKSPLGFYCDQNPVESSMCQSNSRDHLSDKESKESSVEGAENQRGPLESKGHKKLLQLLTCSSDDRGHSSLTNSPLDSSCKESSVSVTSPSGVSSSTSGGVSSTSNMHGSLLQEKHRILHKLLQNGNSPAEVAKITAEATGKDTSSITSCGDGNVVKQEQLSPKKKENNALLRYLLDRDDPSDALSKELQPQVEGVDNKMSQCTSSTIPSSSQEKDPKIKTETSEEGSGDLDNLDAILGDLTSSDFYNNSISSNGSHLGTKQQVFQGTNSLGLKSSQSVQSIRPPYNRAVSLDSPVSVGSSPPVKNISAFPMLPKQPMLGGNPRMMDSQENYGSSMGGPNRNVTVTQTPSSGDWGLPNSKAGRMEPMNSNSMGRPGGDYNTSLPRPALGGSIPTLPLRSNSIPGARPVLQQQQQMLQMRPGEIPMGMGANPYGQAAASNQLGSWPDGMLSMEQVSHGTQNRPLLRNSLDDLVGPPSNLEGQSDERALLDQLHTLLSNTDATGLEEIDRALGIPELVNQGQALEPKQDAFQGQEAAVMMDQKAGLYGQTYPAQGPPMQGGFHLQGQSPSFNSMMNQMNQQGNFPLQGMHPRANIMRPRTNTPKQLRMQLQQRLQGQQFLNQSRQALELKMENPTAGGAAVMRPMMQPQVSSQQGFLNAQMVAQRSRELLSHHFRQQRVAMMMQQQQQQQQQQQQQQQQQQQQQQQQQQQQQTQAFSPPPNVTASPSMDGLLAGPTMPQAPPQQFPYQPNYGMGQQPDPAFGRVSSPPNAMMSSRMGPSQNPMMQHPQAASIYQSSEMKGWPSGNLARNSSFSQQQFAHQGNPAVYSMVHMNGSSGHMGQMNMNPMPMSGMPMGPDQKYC
Experiment: SRC3 coactivator transcriptional activity inhibitors, confirmation, cell-based, luminescence, quadruplicate (AID 588792);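 also: 0% = DMSO treated cells and 100% = gossypol at 36 µM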
Conditions: HEK293 GAL4-SRC3 luciferase reporter, at 3.6 µM, active compounds read high
Here, each record is paired with measured inhibition data.
Give the quantity in %, number only.

compound=COc1cccc(/C=N/NC(=O)c2c(C)nc3ccc(Cl)cn23)c1O target_desc="Nuclear receptor coactivator 3 (Homo sapiens) (UniProt Q9Y6Q9)" property_name=inhibition reported=79.3
compound=COc1cccc(CNc2ncnc3ccc(-c4c(C)noc4C)cc23)c1 target_desc="Nuclear receptor coactivator 3 (Homo sapiens) (UniProt Q9Y6Q9)" property_name=inhibition reported=36.6
compound=Nc1ccc(C(=O)N/N=C\c2cc(N=Nc3cccc4ccccc34)ccc2O)cc1 target_desc="Nuclear receptor coactivator 3 (Homo sapiens) (UniProt Q9Y6Q9)" property_name=inhibition reported=15.1
compound=O=[N+]([O-])c1cccc2c1ccc1ncccc12 target_desc="Nuclear receptor coactivator 3 (Homo sapiens) (UniProt Q9Y6Q9)" property_name=inhibition reported=33
compound=C[n+]1c2n(c3ccccc31)N=C(c1cc(C(C)(C)C)c(O)c(C(C)(C)C)c1)CS2 target_desc="Nuclear receptor coactivator 3 (Homo sapiens) (UniProt Q9Y6Q9)" property_name=inhibition reported=81.1

Ask | Need inhibition, item `Nc1ccc(Cn2ccc3c4c(N)nc(N)nc4ccc32)cc1`
Reply | 66.1

Ask | Need inhibition, item CCOC(=O)N1CCC(NC(=O)C2CCCN(Cc3nc(-c4ccc(CC)cc4)oc3C)C2)CC1 (stereo not given)
Reply | 18.7

Ask | Need inhibition, item O=C(NC1CCCN(Cc2ccccc2F)C1)c1cccc(N2CCCC2=O)c1 (stereo not given)
Reply | 3.31

###

Molecular target: Steroidogenic factor 1 (Homo sapiens)
Assay: SF1 (NR5A1) inverse agonists, counter-screen for LRH-1 inverse agonist project, cell-based, luminescence, high throughput (AID 651614);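 also: cells cotransfected with StAR promoter reporter and SF1 expression vector; 0% = vehicle on cells with receptor and 100% = vehicle on cells lacking receptor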
Settings: cell-based SF1 luciferase reporter, at 3.6 µM
The source made the active and inactive calls. Cut-off read from the data, not from the text of the source: active = inhibition above about 44%; inactive = the rest.
Thanks in advance; please answer with one of these: yes (1) (active), no (0) (inactive)

compound=COc1cc(N)c2ncccc2c1Br classification="no (0)"
compound=Cc1ccc(CN2CCC[C@]3(N[C@H](c4ccc(C(F)(F)F)cc4)[C@@H]4C(=O)N(Cc5ccccc5)C(=O)[C@@H]43)C2=O)cc1 classification="no (0)"
compound="COc1ccc(CC(NC(C)=O)C(=O)NC2CCN(c3nnnn3-c3ccccc3)CC2)cc1 (stereo not given)" classification="yes (1)"

Ask | For `O=C(CSC1=NC2(CCCCCC2)N=C1c1ccccc1)Nc1ccc2c(c1)OCCO2` , what call appears in the results of this test?
Reply | yes (1)

Ask | For COc1ccc(NC(=O)C2Cc3c(-c4ccc5c(c4)OCO5)ccnc3O2)cc1OC (stereo not given) , what call appears in the results of this test?
Reply | yes (1)

Ask | For `Cc1ccc(/C=C2/SC(=S)N(CCCC(=O)Nc3ccc(O)cc3)C2=O)cc1` , what call appears in the results of this test?
Reply | yes (1)

Ask | For `Clc1ccc(OCCN2CCN(c3ncnc4sccc34)CC2)cc1` , what call appears in the results of this test?
Reply | yes (1)

Ask | For `Cc1cc(NC(=O)CSc2nc3c(sc4ccccc43)c(=O)n2CCCN2CCOCC2)n[nH]1` , what call appears in the results of this test?
Reply | yes (1)

###

Tested on: transactivating tegument protein VP16 (Human herpesvirus 1)
Assay: VP16 transactivation reporter inhibitors, counter-screen for SRC2 inhibitor project, cell-based, luminescence, single concentration (AID 652007)
Details: cell-based VP16 transactivation luciferase reporter, at 8.9 µM, active compounds read high
property name: inhibition (%)
Give the quantity in %, number only.

Below are worked cases with known answers.
molecule=Cc1ccc(S(=O)(=O)/C(=C/Cl)NC(=O)c2ccccc2)cc1 reported=38.9
molecule=Cc1cc(C(=O)CSc2ccc(F)cc2)cc(C)c1OC(=S)N(C)C reported=22.6
molecule=Cc1nc([N+](=O)[O-])c(C(=O)OCc2ccccc2F)n1C reported=-22.8
molecule=c1c2c(cc3sc(N4CCCCC4)nc13)OCCO2 reported=-48.9
molecule=O=C(NCCCn1ccnc1)c1ccc(N2CCCCCC2)c([N+](=O)[O-])c1 reported=26.9

Ask | Need inhibition, item `Cc1cc(Cl)c(S(=O)(=O)N2CCN(c3ccccn3)CC2)cc1OCC(=O)NC1CCCCC1`
Reply | 10.5

Ask | Need inhibition, item `Cc1cc(C(=O)CN2C(=O)C(=O)N(Cc3ccccc3)C2=O)c(C)n1-c1ccc2c(c1)OCCO2`
Reply | -14.1

Ask | Need inhibition, item `COc1ccc(/C=C2/SC(=O)N(CCCCCC(=O)Nc3ccccc3C(=O)O)C2=S)cc1`
Reply | 53.8

Ask | Need inhibition, item `O=C(C1=NN[C@@H]2C(=O)N(c3cccc(C(F)(F)F)c3)C(=O)[C@H]12)c1ccc2ccccc2n1`
Reply | 2.15

Ask | Need inhibition, item `Cc1ccc(-n2c(-c3ccc(Cl)cc3)c[n+]3c2CCC3)cc1`
Reply | 13.4

###

Biological target: Nuclear receptor coactivator 3 (Homo sapiens) (UniProt Q9Y6Q9)
Assay: SRC3 coactivator transcriptional activity inhibitors, confirmation, cell-based, luminescence, quadruplicate (AID 588792);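 also: 0% = DMSO treated cells and 100% = gossypol at 36 µM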
Settings: HEK293 GAL4-SRC3 luciferase reporter, at 3.6 µM, active compounds read high
Activity calls are given as the source filed them.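 Rule for the calls: active = mean inhibition over 43.08%, the solvent-only control mean plus 3 SD; inactive = the rest.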
property name: inhibition

Below are worked cases with known answers.
molecule=COc1cc(/C=C(/C(=O)c2cccs2)c2nc3ccccc3[nH]2)cc(OC)c1O target_desc="Nuclear receptor coactivator 3 (Homo sapiens) (UniProt Q9Y6Q9)" reported="31.4% (inactive)"
molecule="CC1(C)C2CCC(C2)C1C/C=N/NC(N)=S (stereo unspecified)" target_desc="Nuclear receptor coactivator 3 (Homo sapiens) (UniProt Q9Y6Q9)" reported="17.5% (inactive)"
molecule=CC(C)c1ccc(-c2nnn(CCC(=O)O)n2)cc1 target_desc="Nuclear receptor coactivator 3 (Homo sapiens) (UniProt Q9Y6Q9)" reported="52.2% (active)"
molecule=Clc1ccc(-c2csc3ncnc(NCCN4CCOCC4)c23)cc1 target_desc="Nuclear receptor coactivator 3 (Homo sapiens) (UniProt Q9Y6Q9)" reported="32.2% (inactive)"
molecule=O=C(CN1C(=O)c2ccccc2S1(=O)=O)c1ccc2c(c1)OCCO2 target_desc="Nuclear receptor coactivator 3 (Homo sapiens) (UniProt Q9Y6Q9)" reported="87.8% (active)"
molecule=C(=N\Nc1nc2ccccc2[nH]1)/c1cccc2cccnc12 target_desc="Nuclear receptor coactivator 3 (Homo sapiens) (UniProt Q9Y6Q9)" reported="44.8% (active)"
molecule=Cc1cccc(NC(=O)c2cc(-c3cccnc3)nc3c(C)cccc23)n1 target_desc="Nuclear receptor coactivator 3 (Homo sapiens) (UniProt Q9Y6Q9)" reported="7.37% (inactive)"
molecule=O=C(N/N=C\c1ccc([N+](=O)[O-])s1)c1cncc(Br)c1 target_desc="Nuclear receptor coactivator 3 (Homo sapiens) (UniProt Q9Y6Q9)" reported="32.5% (inactive)"

Ask | # returns recorded inhibition (system: Nuclear receptor coactivator 3 (Homo sapiens) (UniProt Q9Y6Q9)) for `O=C(CNc1cccc([N+](=O)[O-])c1)N/N=C/c1ccc([N+](=O)[O-])o1`
Reply | 32.3% (inactive)

Ask | # returns recorded inhibition (system: Nuclear receptor coactivator 3 (Homo sapiens) (UniProt Q9Y6Q9)) for `Cc1ccc(OCC(=O)c2cc(C)n(-c3ccccc3)c2C)c([N+](=O)[O-])n1`
Reply | 38.5% (inactive)

Ask | # returns recorded inhibition (system: Nuclear receptor coactivator 3 (Homo sapiens) (UniProt Q9Y6Q9)) for `COc1ccc2nc(C(F)(F)Cl)c(C#N)c(N)c2c1`
Reply | 24% (inactive)

Reference source: PubChem BioAssay
